Source of measurements: ChEMBL document CHEMBL1156554

assay method text: Clearance in rat at […], iv dosed in 50% PEG-400/water
Type: ADME, organism-based
Set-up: dose 1.5 mg/kg, route intravenous
run parameters: in vivo
Quick reference: clearance of the listed items.
Numeric only. Scale: mL/min/kg

test smiles: FC(F)(F)c1ccc(Nc2ncnc3cc(-c4ncccc4C(F)(F)F)ccc23)nc1
clearance (mL/min/kg): 4.2

Q: I have this compound here, FC(F)(F)c1ccc(Nc2ncnc3cc(-c4ncccc4C(F)(F)F)ccc23)cn1 , and I need its recorded clearance.
Ans: 22

----------
assay method text: Bioavailability in rat at 2.0 mg/kg, po dosed in 0.5% methylcellulose, 0.1% triacetin
Assay type: ADME, organism-based
run parameters: in vivo
value kind: bioavailability (%)
Write the answer as a number in %, unit excluded.

Example compounds with recorded bioavailability:
compound: FC(F)(F)c1ccc(Nc2ncnc3cc(-c4ncccc4C(F)(F)F)ccc23)cc1 [NGD-8243]
value kind: bioavailability
recorded number: 8

compound: FC(F)(F)c1ccc(Nc2ncnc3cc(-c4ncccc4C(F)(F)F)ccc23)nc1
value kind: bioavailability
recorded number: 89

Now turn to the next compound.
Q: Please report the recorded bioavailability for COCc1nc(Nc2ccc(C(F)(F)F)cc2)c2ccc(-c3ncccc3C(F)(F)F)cc2n1 .
Ans: 50

----------
assay method text: Half life in rat at 2.7 mg/kg, iv dosed in 50% PEG-400/water
Format: ADME, organism-based
Design: dose 2.7 mg/kg, route intravenous
run parameters: in vivo
value kind: half-life (h)
Answer with a number only, understood to be in h.

Q: Item under review: FC(F)(F)c1ccc(Nc2ncnc3cc(-c4ncccc4C(F)(F)F)ccc23)cc1 . Reported half-life?
Ans: 8

----------
assay method text: AUC (0 to infinity) in rat at 2.0 mg/kg, po dosed in 0.5% methylcellulose, 0.1% triacetin
Assay type: ADME, organism-based
Parameters: time infinity, dose 2 mg/kg, route oral
run parameters: in vivo
value kind: AUC(0-inf) (µg·h/mL)
Form entry: value (µg·h/mL) — number only.

test smiles: C[C@@H]1CN(Cc2nc(Nc3ccc(C(F)(F)F)nc3)c3ccc(-c4ncccc4C(F)(F)F)cc3n2)C[C@H](C)O1
value kind: AUC(0-inf)
recorded number: 0.218

test smiles: FC(F)(F)c1ccc(Nc2ncnc3cc(-c4ncccc4C(F)(F)F)ccc23)cc1
value kind: AUC(0-inf)
recorded number: 0.121

test smiles: FC(F)(F)c1ccc(Nc2ncnc3cc(-c4ncccc4C(F)(F)F)ccc23)nc1
value kind: AUC(0-inf)
recorded number: 7.62

Please look at the following molecule next.
Q: Fill blank: measured AUC(0-inf) of the molecule COCc1nc(Nc2ccc(C(F)(F)F)cc2)c2ccc(-c3ncccc3C(F)(F)F)cc2n1 is ____.
Ans: 3.25

----------
assay method text: Dissociation constant, pKa of the compound
Type: physicochemical
value kind: pKa
Field format: numeric only.

Here is how some molecules turned out for pKa.
molecule: FC(F)(F)c1ccc(Nc2ncnc3cc(-c4ncccc4C(F)(F)F)ccc23)nc1
recorded number: 3.26

molecule: CC1CN(Cc2nc(Nc3ccc(C(F)(F)F)cc3)c3ccc(-c4ncccc4C(F)(F)F)cc3n2)CC(C)O1 (configuration not stated)
recorded number: 7.51

molecule: COCc1nc(Nc2ccc(C(F)(F)F)cc2)c2ccc(-c3ncccc3C(F)(F)F)cc2n1
recorded number: 3.7

molecule: FC(F)(F)c1ccc(Nc2nc(CCCN3CCOCC3)nc3cc(-c4ncccc4C(F)(F)F)ccc23)cc1
recorded number: 7.86

molecule: CN1CCN(Cc2nc(Nc3ccc(C(F)(F)F)cc3)c3ccc(-c4ncccc4C(F)(F)F)cc3n2)CC1
recorded number: 7.68

Q: Could you share which pKa value was measured for FC(F)(F)c1ccc(Nc2ncnc3cc(-c4ncccc4C(F)(F)F)ccc23)cn1 ?
Ans: 3.48

Q: Can you look up the measured pKa of FC(F)(F)c1ccc(Nc2ncnc3cc(-c4ncccc4C(F)(F)F)ccc23)cc1 for me?
Ans: 4.54

----------
assay method text: Clearance in rat at 2.7 mg/kg, iv dosed in 50% PEG-400/water
Type: ADME, organism-based
Design: dose 2.7 mg/kg, route intravenous
run parameters: in vivo
value kind: clearance (mL/min/kg)
Enter your answer as a number in mL/min/kg; do not include the unit.

Q: Could you tell me which clearance is on file for FC(F)(F)c1ccc(Nc2ncnc3cc(-c4ncccc4C(F)(F)F)ccc23)cc1 ?
Ans: 23

----------
assay method text: Bioavailability in rat at […], po dosed in 0.5% methylcellulose, 0.1% triacetin
Type: ADME, organism-based
run parameters: in vivo
value kind: bioavailability (%)
Give the value in % but do not write % after it.

Q: Please report the recorded bioavailability for FC(F)(F)c1ccc(Nc2ncnc3cc(-c4ncccc4C(F)(F)F)ccc23)cn1 .
Ans: 61

----------
assay method text: Tmax in rat at 2.0 mg/kg, po dosed in 0.5% methylcellulose, 0.1% triacetin
Format: ADME, organism-based
Parameters: dose 2 mg/kg, route oral
run parameters: in vivo
value kind: Tmax (h)
Hi! Could you send only the number? It should be in h, unit omitted.

Please review the entries below; each comes with its answer.
test smiles: FC(F)(F)c1ccc(Nc2ncnc3cc(-c4ncccc4C(F)(F)F)ccc23)cc1
value kind: Tmax
unit text: h
recorded number: 3
--
test smiles: FC(F)(F)c1ccc(Nc2ncnc3cc(-c4ncccc4C(F)(F)F)ccc23)nc1
value kind: Tmax
unit text: h
recorded number: 5.7
--
test smiles: COCc1nc(Nc2ccc(C(F)(F)F)cc2)c2ccc(-c3ncccc3C(F)(F)F)cc2n1
value kind: Tmax
unit text: h
recorded number: 3.7

Moving on to the next compound.
Q: Sample C[C@@H]1CN(Cc2nc(Nc3ccc(C(F)(F)F)nc3)c3ccc(-c4ncccc4C(F)(F)F)cc3n2)C[C@H](C)O1 — what was its Tmax?
Ans: 0.9

----------
assay method text: Ratio of drug level in brain to plasma in rat at 3 mg/kg, po after 4 hrs
Type: ADME, organism-based
Design: dose 3 mg/kg, route oral
value kind: Kp at 4 h
A bare number is all that is needed in reply.

Q: What value of measured Kp at 4 h is listed for COCc1nc(Nc2ccc(C(F)(F)F)cc2)c2ccc(-c3ncccc3C(F)(F)F)cc2n1 ?
Ans: 1.8
